target: Replicase polyprotein 1ab (Severe acute respiratory syndrome-related coronavirus)
quantity_kind: pIC50
Hey, just a heads up that pIC50 is the negative log base 10 of the concentration in molar.

Return reported pIC50; argument: CC(C)C[C@H](NC(=O)[C@H](Cc1cccc2ccccc12)NC(=O)OCc1ccccc1)C(=O)N[C@H](C=O)C[C@@H]1CCNC1=O 6.64

###

assay: Cytotoxicity against human HG23 cells after 72 hrs by crystal violet staining-based assay; assay type: cell-based
Kindly state CC50 at 72 h for each of the entries shown.

Quick one: CC50 at 72 h for CC(C)C[C@H](NC(=O)[C@H](Cc1cccc2ccccc12)NC(=O)OCc1ccccc1)C(=O)N[C@H](C=O)C[C@@H]1CCNC1=O ? 87 µM

Same read-out for CC(C)C[C@H](NC(=O)[C@H](Cc1cccc2ccccc12)NC(=O)OCc1ccccc1)C(=O)N[C@@H](C[C@@H]1CCNC1=O)C(=O)C(=O)NC(C)C ? > 100 µM
